Where these numbers come from: patent US20240182536A1

# measuredOn: T1, human IL-18 binding protein (IL-18BP) (human, UniProt O95998 31-194)
# T1 sequence (looked up): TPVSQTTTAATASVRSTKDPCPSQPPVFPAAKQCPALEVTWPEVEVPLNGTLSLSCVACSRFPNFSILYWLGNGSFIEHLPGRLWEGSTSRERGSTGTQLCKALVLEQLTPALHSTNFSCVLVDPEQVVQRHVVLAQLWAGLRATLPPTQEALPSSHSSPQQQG
# experiment: cell-based or functional assay
valueType: HEK-Blue Ec50 (pM), +IL-18BP (50 nM)

# binder, endpointUnit, observedMeasurement
rows = [
    ("IL-18 variant G3E, K53S (ligand) YFEKLESKLSVIRNLNDQVLFIDQGNRPLFEDMTDSDMRDNAPRTIFIISMYSDSQPRGMAVTISVKSEKISTLSSENKIISFKEMNPPDNIKDTKSDIIFFQRSVPGHDNKMQFESSSYEGYFLASEKERDLFKLILKKEDELGDRSIMFTVQNED", "pM", 4.41),
    ("IL-18 variant G3S, K53S (ligand) YFSKLESKLSVIRNLNDQVLFIDQGNRPLFEDMTDSDMRDNAPRTIFIISMYSDSQPRGMAVTISVKSEKISTLSSENKIISFKEMNPPDNIKDTKSDIIFFQRSVPGHDNKMQFESSSYEGYFLASEKERDLFKLILKKEDELGDRSIMFTVQNED", "pM", 4.43),
    ("IL-18 variant G3A, K53S (ligand) YFAKLESKLSVIRNLNDQVLFIDQGNRPLFEDMTDSDMRDNAPRTIFIISMYSDSQPRGMAVTISVKSEKISTLSSENKIISFKEMNPPDNIKDTKSDIIFFQRSVPGHDNKMQFESSSYEGYFLASEKERDLFKLILKKEDELGDRSIMFTVQNED", "pM", 4.45),
    ("Comparator 1 (human IL-18 variant M51K, K53S, Q56L, P57A, M60L, S105D, D110S, N111R) (ligand) YFGKLESKLSVIRNLNDQVLFIDQGNRPLFEDMTDSDCRDNAPRTIFIISKYSDSLARGLAVTISVKCEKISTLSCENKIISFKEMNPPDNIKDTKSDIIFFQRDVPGHSRKMQFESSSYEGYFLACEKERDLFKLILKKEDELGDRSIMFTVQNED", "pM", 0.22),
]
